- target_entity: recombinant rat PIM-3 (Rattus norvegicus, UniProt O70444)
- method_notes: PIM-3 Assay (as Example A)
- experimental_conditions: averaged IC50; 30 μM ATP, 3.75 μM PIM2tide, 0.5 nM PIM-3
Where a name gives a salt, the structure may show the parent alone.
measured_property: IC50 (nM)
Lab book: enter the figure in nM, no units written.

Note IC50 for the compound shown: CC(C)Oc1cccc2ccc(-c3nnc4ccc([C@@H](N5CC[C@](C)(N)C5)C(F)(F)F)cn34)nc12 [Example 93, dihydrochloride]
0.9

Note IC50 for the compound shown: CC(C)(C#N)c1cccc2ccc(-c3nnc4ccc([C@@H](N5CC[C@H](N)C5)C(F)(F)F)cn34)nc12 [Example 99, dihydrochloride]
0.6

Note IC50 for the compound shown: C[C@]1(N)CCN([C@@H](c2ccc3nnc(-c4ccc5ccc(CCO)cc5n4)n3c2)C(F)(F)F)C1 [Example 317]
0.4

Note IC50 for the compound shown: COCC1(c2cc3nc(-c4nnc5ccc([C@@H](N6CC[C@H](N)C6)C(F)(F)F)cn45)ccc3cc2F)CC1 [Example 165, dihydrochloride]
6.6

Note IC50 for the compound shown: CC(C)Oc1cc(F)cc2ccc(-c3nnc4ccc([C@@H](N5C[C@@H](N)[C@@H](O)C5)C(F)(F)F)cn34)nc12 [Example 132, dihydrochloride]
16

Note IC50 for the compound shown: COCCc1cc2nc(-c3nnc4ccc([C@@H](N5CC[C@H](N)C5)C(F)(F)F)cn34)ccc2cc1F [Example 153, dihydrochloride]
1.6

Note IC50 for the compound shown: COCCOc1c(F)ccc2ccc(-c3nnc4ccc([C@@H](N5CC[C@H](N)C5)C(F)(F)F)cn34)nc12 [Example 108, hydrochloride]
4.7

Note IC50 for the compound shown: FC(F)(F)[C@H](c1ccc2nnc(-c3ccc4ccc(C5CC5)cc4n3)n2c1)N1C[C@@H]2C[C@H]1CN2 [Example 77, dihydrochloride]
0.3

Note IC50 for the compound shown: N[C@H]1CCN(C(c2ccc3nnc(-c4ccc5cccc(OCC6CC6)c5n4)n3c2)C(F)(F)F)C1 (stereo partly drawn) [Example 5, dihydrochloride]
2.6

Note IC50 for the compound shown: FC(F)(F)[C@@H](c1ccc2nnc(-c3ccc4ccc(Br)cc4n3)n2c1)N1C[C@@H]2C[C@H]1CN2 [Example 68, dihydrochloride]
14

Note IC50 for the compound shown: COc1cccc2ccc(-c3nnc4ccc([C@@H](N5CCC(C)(O)C5)C(F)(F)F)cn34)nc12 (single isomer, unassigned; diastereomer 1) [Example 193, hydrochloride]
67

###

- target_entity: GST-tagged recombinant full-length human Pim-2 (Homo sapiens, UniProt Q9P1W9)
- Construct: GST-tagged recombinant full-length human Pim-2; GST
- Sequence (Q9P1W9 whole entry): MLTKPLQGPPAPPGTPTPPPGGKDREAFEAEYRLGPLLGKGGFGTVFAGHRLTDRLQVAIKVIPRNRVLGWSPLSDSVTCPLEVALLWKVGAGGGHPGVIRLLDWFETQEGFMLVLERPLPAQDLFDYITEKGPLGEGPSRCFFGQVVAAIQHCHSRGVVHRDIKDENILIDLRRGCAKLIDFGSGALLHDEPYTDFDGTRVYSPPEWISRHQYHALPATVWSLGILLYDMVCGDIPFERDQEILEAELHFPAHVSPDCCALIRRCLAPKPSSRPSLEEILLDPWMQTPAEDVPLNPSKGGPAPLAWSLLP
- method_notes: PIM-2 Assay (as Example A)
- experimental_conditions: averaged IC50; 4 μM ATP, 1.0 μM PIM2tide, 1.5 nM Pim-2
Counter-ions that a name gives are not always drawn.
measured_property: IC50

Note IC50 for the molecule shown: CC(C)Sc1ccc2ccc(-c3nnc4ccc([C@@H](N5CC[C@H](N)C5)C(F)(F)F)cn34)nc2c1 [Example 268, hydrochloride]
> 1000 nM

Note IC50 for the molecule shown: COc1ccc2ccc(-c3nnc4ccc([C@@H](N5CC[C@H](N)C5)C(F)(F)F)cn34)nc2c1C [Example 124, hydrochloride]
> 100 nM

Note IC50 for the molecule shown: COc1cc(F)cc2ccc(-c3nnc4ccc([C@@H](N5CC[C@@](C)(N)C5)C(F)(F)F)cn34)nc12 [Example 241, dihydrochloride]
> 1000 nM

Note IC50 for the molecule shown: CC(=O)OCCOc1cc2nc(-c3nnc4ccc([C@@H](N5CC[C@H](N)C5)C(F)(F)F)cn34)ccc2cc1F [Example 122, acetate hydrochloride]
> 100 nM
